Experiment: AUC in human at 10 to 20 mg, po BID after 12 hrs
Assay type: ADME, organism-based
Conditions: in vivo
Measurement kind: AUC at 12 h

[[record]]
record_smiles = "COc1cc(C(=O)NS(=O)(=O)c2ccccc2C)ccc1Cc1cn(C)c2ccc(NC(=O)OC3CCCC3)cc12"
measurement_kind = "AUC at 12 h"
reported_measurement = "3.6 µM·h"


* * *

The following compounds are shown together with reported IC50 values.
Target: UniProt:O95342
Sequence (O95342 whole entry): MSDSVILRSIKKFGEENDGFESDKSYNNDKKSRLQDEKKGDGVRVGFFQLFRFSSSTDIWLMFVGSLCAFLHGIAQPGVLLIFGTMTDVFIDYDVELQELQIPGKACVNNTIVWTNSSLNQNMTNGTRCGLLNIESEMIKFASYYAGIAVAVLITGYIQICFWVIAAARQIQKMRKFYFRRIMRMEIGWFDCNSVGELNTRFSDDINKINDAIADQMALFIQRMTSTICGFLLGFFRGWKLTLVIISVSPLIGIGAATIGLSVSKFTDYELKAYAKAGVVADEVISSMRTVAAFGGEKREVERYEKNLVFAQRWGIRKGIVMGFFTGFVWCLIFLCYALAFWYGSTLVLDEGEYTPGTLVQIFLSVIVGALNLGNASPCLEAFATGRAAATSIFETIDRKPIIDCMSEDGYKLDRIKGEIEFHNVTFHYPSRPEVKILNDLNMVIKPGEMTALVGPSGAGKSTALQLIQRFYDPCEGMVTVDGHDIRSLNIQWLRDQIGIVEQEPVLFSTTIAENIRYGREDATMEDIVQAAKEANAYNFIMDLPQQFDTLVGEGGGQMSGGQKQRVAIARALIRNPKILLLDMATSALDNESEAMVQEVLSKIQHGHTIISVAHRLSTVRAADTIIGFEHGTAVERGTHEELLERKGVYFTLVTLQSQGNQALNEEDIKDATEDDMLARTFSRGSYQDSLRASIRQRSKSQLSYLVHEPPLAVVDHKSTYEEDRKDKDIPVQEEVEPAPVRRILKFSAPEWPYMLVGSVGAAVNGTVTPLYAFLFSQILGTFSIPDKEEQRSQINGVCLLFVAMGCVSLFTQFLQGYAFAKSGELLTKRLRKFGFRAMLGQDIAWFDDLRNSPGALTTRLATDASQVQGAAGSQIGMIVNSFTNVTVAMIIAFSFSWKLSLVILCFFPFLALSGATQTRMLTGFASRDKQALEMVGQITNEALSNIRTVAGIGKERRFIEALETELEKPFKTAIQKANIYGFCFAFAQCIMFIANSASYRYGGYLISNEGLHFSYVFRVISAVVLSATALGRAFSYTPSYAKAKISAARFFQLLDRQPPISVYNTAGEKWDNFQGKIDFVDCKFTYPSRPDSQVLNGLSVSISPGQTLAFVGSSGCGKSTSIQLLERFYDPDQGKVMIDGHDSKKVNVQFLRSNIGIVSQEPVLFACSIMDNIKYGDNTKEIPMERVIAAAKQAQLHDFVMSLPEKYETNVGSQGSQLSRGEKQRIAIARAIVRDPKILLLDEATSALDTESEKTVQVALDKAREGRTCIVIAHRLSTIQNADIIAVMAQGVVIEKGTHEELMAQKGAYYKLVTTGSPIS
Test: Inhibition of human BSEP overexpressed in Sf9 cell membrane vesicles assessed as uptake of [3H]-taurocholate in presence of ATP measured after 15 to 20 mins by membrane vesicle transport assay
Measurement kind: IC50

[[record]]
compound = "Cc1nnc(SCC2=C(C(=O)O)N3C(=O)[C@@H](NC(=O)Cn4cnnn4)[C@H]3SC2)s1 [CEFAZOLIN SODIUM]"
measurement_kind = "IC50"
reported_measurement = "> 133 µM"

[[record]]
compound = "CC(C(=O)O)c1ccc2c(c1)[nH]c1ccc(Cl)cc12 (stereo not given)"
measurement_kind = "IC50"
reported_measurement = "> 133 µM"

[[record]]
compound = "Cc1c(C(=O)NN2CCCCC2)nn(-c2ccc(Cl)cc2Cl)c1-c1ccc(Cl)cc1"
measurement_kind = "IC50"
reported_measurement = "25 µM"

[[record]]
compound = "CCC(=O)NCC[C@@H]1CCc2ccc3c(c21)CCO3"
measurement_kind = "IC50"
reported_measurement = "> 133 µM"

[[record]]
compound = "O=C(O)CCCc1ccc(N(CCCl)CCCl)cc1"
measurement_kind = "IC50"
reported_measurement = "> 133 µM"


* * *

Target: ATP-binding cassette sub-family C member 3 (Homo sapiens, UniProt O15438)
Sequence (O15438 whole entry): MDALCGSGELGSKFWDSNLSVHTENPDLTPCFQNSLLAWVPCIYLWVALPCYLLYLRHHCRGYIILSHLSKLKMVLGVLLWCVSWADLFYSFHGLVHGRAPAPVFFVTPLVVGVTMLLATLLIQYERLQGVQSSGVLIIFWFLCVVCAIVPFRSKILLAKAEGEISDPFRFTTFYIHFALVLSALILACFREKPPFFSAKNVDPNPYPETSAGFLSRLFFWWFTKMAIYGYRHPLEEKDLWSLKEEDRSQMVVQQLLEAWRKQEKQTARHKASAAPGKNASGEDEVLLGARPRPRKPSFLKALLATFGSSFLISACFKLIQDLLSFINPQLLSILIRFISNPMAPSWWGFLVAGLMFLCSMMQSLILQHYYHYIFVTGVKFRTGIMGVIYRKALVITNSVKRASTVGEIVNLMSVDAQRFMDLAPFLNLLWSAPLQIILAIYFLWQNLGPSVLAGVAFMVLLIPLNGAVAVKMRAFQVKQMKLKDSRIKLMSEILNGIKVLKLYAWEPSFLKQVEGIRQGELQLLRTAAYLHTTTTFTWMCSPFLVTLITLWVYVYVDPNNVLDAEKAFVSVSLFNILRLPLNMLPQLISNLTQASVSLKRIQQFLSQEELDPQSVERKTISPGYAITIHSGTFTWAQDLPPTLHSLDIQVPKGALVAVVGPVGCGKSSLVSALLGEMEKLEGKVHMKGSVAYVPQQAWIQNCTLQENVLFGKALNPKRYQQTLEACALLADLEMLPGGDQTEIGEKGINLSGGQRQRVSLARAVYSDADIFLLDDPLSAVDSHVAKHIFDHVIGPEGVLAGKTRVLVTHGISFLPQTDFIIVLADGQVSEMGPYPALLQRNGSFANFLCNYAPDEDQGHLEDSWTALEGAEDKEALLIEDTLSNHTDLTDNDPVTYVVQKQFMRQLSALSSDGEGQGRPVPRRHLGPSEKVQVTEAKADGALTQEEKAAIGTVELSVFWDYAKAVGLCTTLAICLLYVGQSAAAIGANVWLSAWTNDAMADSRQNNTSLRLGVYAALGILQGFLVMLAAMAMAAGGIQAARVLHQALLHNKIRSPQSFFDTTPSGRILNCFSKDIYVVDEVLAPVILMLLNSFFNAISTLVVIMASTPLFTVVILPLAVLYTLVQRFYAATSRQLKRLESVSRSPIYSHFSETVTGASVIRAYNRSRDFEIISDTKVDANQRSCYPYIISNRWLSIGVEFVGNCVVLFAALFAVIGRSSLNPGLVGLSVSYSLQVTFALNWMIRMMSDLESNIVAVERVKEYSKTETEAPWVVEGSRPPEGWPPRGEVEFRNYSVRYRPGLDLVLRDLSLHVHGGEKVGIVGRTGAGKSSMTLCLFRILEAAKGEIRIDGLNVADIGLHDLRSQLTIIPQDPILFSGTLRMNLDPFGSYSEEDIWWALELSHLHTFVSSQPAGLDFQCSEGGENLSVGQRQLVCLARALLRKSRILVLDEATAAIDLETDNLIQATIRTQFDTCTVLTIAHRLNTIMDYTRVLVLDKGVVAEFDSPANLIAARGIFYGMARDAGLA
Assay: Inhibition of human MRP3 overexpressed in Sf9 insect cell membrane vesicles assessed as uptake of [3H]-estradiol-17beta-D-glucuronide in presence of ATP and GSH measured after 10 mins by membrane vesicle transport assay
Format: ADME, cell-based
pIC50: −log10 of the molar value.
Measurement kind: pIC50

[[record]]
compound = "Nc1cc(-c2ccncc2)c[nH]c1=O"
tgt = "ATP-binding cassette sub-family C member 3 (Homo sapiens, UniProt O15438)"
reported_measurement = "< 3.88"

[[record]]
compound = "CCS(=O)(=O)CCn1c([N+](=O)[O-])cnc1C"
tgt = "ATP-binding cassette sub-family C member 3 (Homo sapiens, UniProt O15438)"
reported_measurement = "< 3.88"

[[record]]
compound = "CCCCC(=O)OCC(=O)[C@]1(O)Cc2c(O)c3c(c(O)c2[C@@H](O[C@H]2C[C@H](NC(=O)C(F)(F)F)[C@H](O)[C@H](C)O2)C1)C(=O)c1c(OC)cccc1C3=O"
tgt = "ATP-binding cassette sub-family C member 3 (Homo sapiens, UniProt O15438)"
reported_measurement = 4.12

[[record]]
compound = "COc1cc2nc(N3CCN(C(=O)C4COc5ccccc5O4)CC3)nc(N)c2cc1OC.CS(=O)(=O)O (centres undefined) [DOXAZOSIN MESYLATE]"
tgt = "ATP-binding cassette sub-family C member 3 (Homo sapiens, UniProt O15438)"
reported_measurement = "< 3.88"


* * *

Assay: AUC in human at 0.1 to 1 mg, po QD after 24 hrs
Format: ADME, organism-based
Conditions: in vivo
Measurement kind: AUC at 24 h (µM·h)

[[record]]
molecule = "COC(=O)[C@H]1[C@H]2C[C@@H]3c4[nH]c5cc(OC)ccc5c4CCN3C[C@H]2C[C@@H](OC(=O)c2cc(OC)c(OC)c(OC)c2)[C@@H]1OC [RESERPINE]"
scale_unit = "µM·h"
reported_measurement = 0.014

